The measurements presented in this section are drawn from patent US9351971B2.

testedOn: Mcl-1 (Homo sapiens)
Construct: made in house; host or cells: E. coli
testMethodNotes: Fluorescence polarization assay, Bim BH3 peptide binding to GST-Mcl-1
conditionParameters: fluorescence polarization, Bim-BH3-FITC peptide, GST-Mcl-1; read-out: IC50, inhibition of Bim-BH3 peptide binding to Mcl-1
Protocol: A nineteen amino acid peptide, corresponding to the BH3 domain of Bim, with the sequence FITC-GGGIAQELRRIGDEFNAY (SEQ ID NO: 1) was labeled with the tluorophore FITC according to the manufacturer's instructions (Molecular Probes, Eugene, Oreg.). […] Further, the ability of compound A to disrupt the interaction between the fluorescent Bim BH3 peptide and the two fusion proteins was assessed using a fluorescence polarization assay. […]
readoutName: pIC50
Give bare numbers, as −log10 of the molar value.

>>> value("COC(=O)c1ccc(O)c2nc3c(C=O)c(O)c(-c4c(O)c(C=O)c5nc6c(O)ccc(C(=O)OC)c6nc5c4O)c(O)c3nc12")
8.15

For the next question, use this compound.
What the record says about "COC(=O)c1ccc(O)c2nc3c(CO)c(O)c(-c4c(O)c(CO)c5nc6c(O)ccc(C(=O)OC)c6nc5c4O)c(O)c3nc12" : pIC50 is 7.57

* * *

testedOn: Mcl-1 (Homo sapiens, UniProt Q07820)
Construct: made in house; host or cells: E. coli
Sequence (Q07820 whole entry): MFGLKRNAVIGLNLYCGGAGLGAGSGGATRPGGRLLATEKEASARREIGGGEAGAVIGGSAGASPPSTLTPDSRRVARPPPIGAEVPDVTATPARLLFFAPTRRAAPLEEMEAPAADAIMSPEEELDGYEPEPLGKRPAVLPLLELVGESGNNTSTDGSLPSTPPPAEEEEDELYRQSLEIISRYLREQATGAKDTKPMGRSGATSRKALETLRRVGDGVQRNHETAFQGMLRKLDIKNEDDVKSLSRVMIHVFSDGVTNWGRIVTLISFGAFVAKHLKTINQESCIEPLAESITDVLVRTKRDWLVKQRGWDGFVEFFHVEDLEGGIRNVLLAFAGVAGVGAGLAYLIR
testMethodNotes: Fluorescence polarization assay, Bim BH3 peptide binding to GST-Mcl-1
conditionParameters: fluorescent polarisation assay of Examples 2 and 3; read-out: IC50, inhibition of MCL1
pIC50: −log10 of the molar value.
readoutName: pIC50

Examples with answers:
>>> value("COc1cc(-c2ccc(Nc3ccc(C)cc3C(=O)O)c(OC)c2)ccc1Nc1ccc(C)cc1C(=O)O")
"> 4.30"
>>> value("COc1cc(-c2ccc(Nc3ccc(C)cc3C(=O)O)c(OC)c2)ccc1Nc1ccccc1C(=O)O")
"> 4.30"
>>> value("COc1ccc(C(=O)O)c(Nc2ccc(-c3ccc(Nc4cc(OC)ccc4C(=O)O)c(OC)c3)cc2OC)c1")
"> 4.30"
>>> value("O=C(O)c1ccccc1Nc1ccc(-c2ccc(Nc3ccccc3C(=O)O)c(O)c2)cc1O")
"> 4.30"

// batch mode: one pIC50 value per listed entry
1. COc1cc(-c2ccc(Nc3cccc(C(=O)O)c3)c(OC)c2)ccc1Nc1cccc(C(=O)O)c1
2. COc1cc(-c2ccc(Nc3cnccc3C(=O)O)c(OC)c2)ccc1Nc1ccccc1C(=O)O

Return:
1: > 4.30; 2: > 4.30
